Target: 5-hydroxytryptamine receptor 1A (Homo sapiens); further: assay procedure not described here
Sequence (P08908 whole entry): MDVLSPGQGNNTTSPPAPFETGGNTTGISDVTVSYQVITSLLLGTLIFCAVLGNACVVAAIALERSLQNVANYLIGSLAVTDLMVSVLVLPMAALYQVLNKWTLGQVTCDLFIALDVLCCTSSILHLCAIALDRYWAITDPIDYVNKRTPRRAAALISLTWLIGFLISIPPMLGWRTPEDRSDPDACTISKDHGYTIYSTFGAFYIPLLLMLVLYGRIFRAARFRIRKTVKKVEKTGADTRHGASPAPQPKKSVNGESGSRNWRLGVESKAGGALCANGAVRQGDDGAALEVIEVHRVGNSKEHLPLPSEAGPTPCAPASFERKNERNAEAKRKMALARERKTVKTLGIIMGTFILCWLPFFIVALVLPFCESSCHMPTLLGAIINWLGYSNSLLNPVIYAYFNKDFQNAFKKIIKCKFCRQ
Type: functional, cell-based
Recorded AC50, one value per entry.
measured_quantity: AC50

molecule: CC(C(=O)O)c1ccc2oc(-c3ccc(Cl)cc3)nc2c1 (stereo not given) [BENOXAPROFEN]
measured_result: > 30 µM
//
molecule: Cc1nnc(SCC2=C(C(=O)O)N3C(=O)[C@@H](NC(=O)Cn4cnnn4)[C@H]3SC2)s1 [CEFAZOLIN]
measured_result: > 300 µM
//
molecule: CCCc1cc(=O)[nH]c(=S)[nH]1 [PROPYLTHIOURACIL]
measured_result: > 10 µM
//
molecule: CC(C)Cc1ccc([C@H](C)C(=O)O)cc1 [DEXIBUPROFEN]
measured_result: > 30 µM
//
molecule: C[N+]1(C)CCC(=C(c2ccccc2)c2ccccc2)CC1
measured_result: > 10 µM
//
molecule: O=C(O)c1ccc(NC(=O)[C@H](Cc2ccc(O)cc2)NC(=O)c2ccccc2)cc1 [BENTIROMIDE]
measured_result: > 10 µM
//
molecule: CC1=C(/C=C/C(C)=C/C=C/C(C)=C/CO)C(C)(C)CCC1 [RETINOL]
measured_result: > 10 µM
//
molecule: CCC(=O)O[C@](Cc1ccccc1)(c1ccccc1)[C@H](C)CN(C)C [PROPOXYPHENE]
measured_result: > 10 µM
//
molecule: NNC(=O)c1ccncc1 [ISONIAZID]
measured_result: > 10 µM
//
molecule: CCCc1nc2c(C)cc(-c3nc4ccccc4n3C)cc2n1Cc1ccc(-c2ccccc2C(=O)O)cc1
measured_result: > 30 µM
//
molecule: CCN1CCCC1CNC(=O)c1cc(S(=O)(=O)CC)ccc1OC (stereo not given) [SULTOPRIDE]
measured_result: > 30 µM
//
molecule: Clc1ccc(Cn2c(CN3CCCC3)nc3ccccc32)cc1 [CLEMIZOLE]
measured_result: > 30 µM
//
molecule: CC(O)(CS(=O)(=O)c1ccc(F)cc1)C(=O)Nc1ccc(C#N)c(C(F)(F)F)c1 (stereo not given) [BICALUTAMIDE]
measured_result: > 10 µM
//
molecule: Oc1ccc(CCNCCCCCCNCCc2ccccc2)cc1O [DOPEXAMINE]
measured_result: > 30 µM
//
molecule: CC(CN(C)C)C(C)(O)Cc1ccc(Cl)cc1 (stereo not given) [CLOBUTINOL]
measured_result: > 10 µM
//
molecule: CCCCOc1ccc(C(=O)CCN2CCCCC2)cc1 [DYCLONINE]
measured_result: > 10 µM
//
molecule: CCN1CC(CCN2CCOCC2)C(c2ccccc2)(c2ccccc2)C1=O (stereo not given) [DOXAPRAM]
measured_result: > 30 µM
//
molecule: C=CCN1CCc2nc(N)sc2CC1 [TALIPEXOLE]
measured_result: > 30 µM
//
molecule: CCC1(CCC(C)C)C(=O)NC(=O)NC1=O [AMOBARBITAL]
measured_result: > 10 µM
//
molecule: COc1cc2[nH]c(C)c(CCN3CCN(c4ccccc4)CC3)c2cc1OC [OXYPERTINE]
measured_result: 0.15 µM
